experiment: inhibitors of Toxoplasma growth in IFN-γ-primed HeLa – cell-based, ME49Luc, luciferase, 72 h, dose response (AID 1259418); conditions: T. gondii ME49Luc in IFN-y HeLa, active compounds read low, -100% = high-dose IFN-γ control wells; at 19.5 µM unless noted
In all, about 3,400 compounds went through this assay and about 840 (25%) were called active. Roughly 11% stayed inconclusive and do not appear here. A selection follows. Measured potencies and affinities stand elsewhere.
QUANTITY_KIND: max activity

Give measured max activity for every item shown.
1. CCOC(=O)c1ccc(NC(=O)Nc2ccc(-c3nc(-c4ccc(C)cc4C)co3)cc2)cc1
2. Cc1ccc(N(Cc2nc(-c3ccc(OC(C)C)cc3)oc2C)S(=O)(=O)c2cccs2)cc1

15.1% [at 0.16 µM] (inactive)
-11.4% [at 0.68 µM] (inactive)

Give measured max activity for every item shown.
1. COc1ccccc1-c1nc(CSc2nc3c(c(=O)[nH]2)CN(Cc2ccc(F)cc2)CC3)c(C)o1
2. COc1ccc(-c2nc(NCc3cccc(OC)c3)c3ccccc3n2)cc1
3. Cc1ccc(-c2nc(CN(c3ccc(C)cc3)S(=O)(=O)c3cccs3)c(C)o2)cc1

["38.6% [at 5 µM] (inactive)", "17.2% (inactive)", "12.6% [at 0.16 µM] (inactive)"]

* * *

Please respond with reported max activity for every item in the list.
test: inhibitors of Toxoplasma growth in IFN-γ-primed HeLa – cell-based, ME49Luc, luciferase, 72 h, dose response (AID 1259418); conditions: T. gondii ME49Luc in IFN-y HeLa, active compounds read low, -100% = high-dose IFN-γ control wells; at 19.5 µM unless noted
Out of some 3,400 compounds screened, about 840 (25%) were called active. Not shown: some 11% with an inconclusive outcome. The list is a sample of the results. Potency and affinity values are given separately.

SMILES_ENTRY	max activity
COc1ccc(C(=O)Nc2ccc(-c3nc(-c4ccc(C)cc4C)co3)cc2)cc1OC	45% (inactive)

Give measured max activity for every item shown.
1. O=C(Nc1ccc(-c2nc(-c3ccccc3)co2)cc1)Nc1cc(F)ccc1F
2. Cc1ccc(C)c(-c2coc(-c3ccc(NC(=O)c4ccccc4)cc3)n2)c1
3. COc1ccc(C)cc1NC(=O)Nc1ccc(-c2nc(-c3ccc(C)cc3C)co2)cc1
4. Cc1ccc(-c2coc(-c3ccc(NC(=O)Nc4ccc(F)cc4F)cc3)n2)cc1

["10.9% [at 2.6 µM] (inactive)", "11.8% [at 2.6 µM] (inactive)", "20.4% (inactive)", "92.1% (inactive)"]

* * *

test: inhibitors of Toxoplasma growth in IFN-γ-primed HeLa – cell-based, ME49Luc, luciferase, 72 h, dose response (AID 1259418); conditions: T. gondii ME49Luc in IFN-y HeLa, active compounds read low, -100% = high-dose IFN-γ control wells; at 19.5 µM unless noted
Screen size: about 3,400 compounds; about 840 (25%) were called active. Not shown: some 11% with an inconclusive outcome. Not all results are given here. Potency and affinity values are given separately.
Please respond with reported max activity for every item in the list.

Below: 5 compounds and their reported max activity.
COMPOUND	max activity
O=C(c1cnccn1)N1CC(=O)N2[C@H](CO)[C@@H](c3ccc(/C=C/c4ccccc4)cc3)[C@H]2C1	28.4% (inactive)
COCCCN=C(Nc1ccc(C(=O)O)cc1)N1CCN(c2ncnc3ccccc23)CC1	14.9% (inactive)
CCn1nnc2c(NCCn3ccc4ccccc43)ncnc21	-27.3% (inactive)
COc1ccc(Cl)cc1NC(=O)CN1CCC2(CC1)N=C(c1cccc(F)c1)C(=O)N2	7.5% [at 5 µM] (inactive)
Cc1cccc(C2=NC3(CCN(CC(=O)Nc4ccc(C)c(F)c4)CC3)NC2=O)c1	-23% (inactive)

Give measured max activity for every item shown.
1. Cc1sc(-c2nc(C(C)C)cs2)cc1S(=O)(=O)N1CCC(C)CC1
2. COc1cccc(-c2ccc([C@H]3[C@H](CO)N4C(=O)CN(C(=O)c5cccnc5)C[C@@H]34)cc2)c1
3. CN1c2ccc(-c3ccc(C#N)cc3)cc2[C@H]2[C@H](CCN2S(=O)(=O)c2ccc(F)cc2)[C@H]1CO
4. Cc1nc(-c2ccc(F)cc2)sc1-c1ccc(SCc2cccc(C(F)(F)F)c2)nn1
5. COCCCN1CCc2nc(SCc3nc(-c4ccc(OC)cc4)oc3C)[nH]c(=O)c2C1

1: 11.7% (inactive); 2: 25.9% (inactive); 3: 42.2% [at 10 µM] (inactive); 4: -7.18% [at 0.16 µM] (inactive); 5: 25.5% [at 0.16 µM] (inactive)

Give measured max activity for every item shown.
1. CC(C)c1cc(C2CCCN2C(=O)Cn2nc(C(F)(F)F)c3c2CCCC3)no1 (centres undefined)
2. Cc1oc(-c2ccccc2)nc1Cn1nnc(-c2nc(-c3cccc(Br)c3)no2)c1C

["6.95% [at 0.16 µM] (inactive)", "5.37% [at 0.16 µM] (inactive)"]

Give measured max activity for every item shown.
1. CC(C)N1CCN(CC#N)C2(CCN(C(=O)c3ccc[nH]3)C2)C1=O (centres undefined)
2. CN1c2ccc(Br)cc2[C@H]2[C@H](CCN2S(=O)(=O)c2ccccc2F)[C@H]1CO
3. COc1ccc(NC(=O)N2CCc3nc(-c4ccccc4)sc3C2)cc1OC
4. COc1cccc(-c2ccc([C@@H]3[C@H]4CN(C(=O)c5cccnc5)CC(=O)N4[C@H]3CO)cc2)c1
5. Cc1nnc(N2C[C@@H](Oc3ncccc3F)[C@@H]3OCCC[C@@H]32)s1
6. Cc1cc2cc(CNc3ncnc4c3nnn4C)ccc2[nH]1

1: 43.6% (inactive); 2: 25% [at 9 µM] (inactive); 3: -8.38% [at 0.35 µM] (inactive); 4: 12.1% (inactive); 5: 9.8% (inactive); 6: 9.49% [at 10 µM] (inactive)

Please list max activity recorded for the compound COc1ccc(C#Cc2ccc3c(c2)[C@H]2[C@H](CCN2S(=O)(=O)c2ccccc2C)[C@H](CO)N3C)cc1
22.1% [at 10 µM] (inactive)
